Test system: yeast
Test: YAS, cytotoxicity (turbidity at 620 nm)
Assay type: cell-based
Conditions: EC20 = concentration that produces a 20% effect; yeast turbidity
parameter: Cytotoxic EC20 (μM) YAS

Give the reported value of Cytotoxic EC20 (μM) YAS for this record: COc1ccc(C(=CC(=O)N2CCOCC2)c2ccc(Cl)cc2)cc1OC > 50 µM

Give the reported value of Cytotoxic EC20 (μM) YAS for this record: Cc1ccc(N(SC(F)(Cl)Cl)S(=O)(=O)N(C)C)cc1 1.14 µM

Give the reported value of Cytotoxic EC20 (μM) YAS for this record: CC(C)OC(=O)Nc1cccc(Cl)c1 > 40 µM

Give the reported value of Cytotoxic EC20 (μM) YAS for this record: Fc1ccc(Oc2ccnc3cc(Cl)cc(Cl)c23)cc1 > 75 µM

----------
Test system: yeast
Assay: YAS, cytotoxicity (turbidity at 620 nm)
Type: cell-based
Conditions: EC20 = concentration that produces a 20% effect; yeast turbidity
Experimental: The methods for the YAS have been described previously ([Sohoni and Sumpter 1998]). Briefly, stimulation of the transfected AR causes a color change in the media, which is measured by absorbance at 540 nm (Labsystems Multiskan Multisoft, Vienna, VA, USA). Plates were also measured at 620 nm to measure cell growth (turbidity) to check for any cytotoxic effects that may have occurred. Pesticides were coincubated with DHT (6.4 nM). […] Incubation time was 53 hr at 28°C. […]
parameter: Cytotoxic EC20 (μM) YAS

Give the reported value of Cytotoxic EC20 (μM) YAS for this record: CC1(C)C(/C=C(\Cl)C(F)(F)F)C1C(=O)OC(C#N)c1cccc(Oc2ccccc2)c1 (stereo not drawn) > 200 µM

Give the reported value of Cytotoxic EC20 (μM) YAS for this record: Cc1c(COC(=O)[C@@H]2[C@H](/C=C(\Cl)C(F)(F)F)C2(C)C)cccc1-c1ccccc1 (racemic) > 200 µM

Give the reported value of Cytotoxic EC20 (μM) YAS for this record: CCOc1ccc2c(c1)C(C)=CC(C)(C)N2 > 200 µM

Give the reported value of Cytotoxic EC20 (μM) YAS for this record: CC1COC(Cn2cncn2)(c2ccc(Oc3ccc(Cl)cc3)cc2Cl)O1 (stereo not drawn) 0.109 µM

Give the reported value of Cytotoxic EC20 (μM) YAS for this record: COP(=S)(OC)SCn1nnc2ccccc2c1=O > 150 µM

Give the reported value of Cytotoxic EC20 (μM) YAS for this record: N#Cc1c[nH]cc1-c1cccc2c1OC(F)(F)O2 > 160 µM

Give the reported value of Cytotoxic EC20 (μM) YAS for this record: Cc1cc(C)nc(Nc2ccccc2)n1 167 µM

Give the reported value of Cytotoxic EC20 (μM) YAS for this record: CCN(CC)c1nc(C)cc(OP(=S)(OC)OC)n1 > 200 µM

Give the reported value of Cytotoxic EC20 (μM) YAS for this record: CC12CC1(C)C(=O)N(c1cc(Cl)cc(Cl)c1)C2=O (stereo not drawn) [Procymidone, reference compound] > 160 µM

----------
Tested on: MDA-kb2 cells
Conditions: EC20 = concentration that produces a 20% effect
parameter: Cytotoxic EC20 (μM) MDA-kb2 (µM)
Please state the figure in µM; there is no need to write the unit.

Give the reported value of Cytotoxic EC20 (μM) MDA-kb2 for this record: Cc1ccc(N(SC(F)(Cl)Cl)S(=O)(=O)N(C)C)cc1 [Tolylfluanid] 8.09

Give the reported value of Cytotoxic EC20 (μM) MDA-kb2 for this record: CC1COC(Cn2cncn2)(c2ccc(Oc3ccc(Cl)cc3)cc2Cl)O1 (stereo not drawn) [Difenoconazole] 2.91

Give the reported value of Cytotoxic EC20 (μM) MDA-kb2 for this record: Fc1ccc(Oc2ccnc3cc(Cl)cc(Cl)c23)cc1 [Quinoxyfen] 10.1

Give the reported value of Cytotoxic EC20 (μM) MDA-kb2 for this record: COP(=S)(OC)SCn1nnc2ccccc2c1=O [Azinphos-methyl] 33.9

Give the reported value of Cytotoxic EC20 (μM) MDA-kb2 for this record: CC1(C)C(/C=C(\Cl)C(F)(F)F)C1C(=O)OC(C#N)c1cccc(Oc2ccccc2)c1 (stereo not drawn) [λ-Cyhalothrin] 51.4

Give the reported value of Cytotoxic EC20 (μM) MDA-kb2 for this record: CCCN(CC)CC1COC2(CCC(C(C)(C)C)CC2)O1 (stereo not drawn) [Spiroxamine] 9.29

----------
Molecular target: androgen receptor (AR) (Homo sapiens, UniProt P10275, Q868H)
Construct: MDA-kb2 cells are human breast cancer cells stably transfected with a firefly luciferase reporter gene; endogenous in cells; host or cells: MDA-kb2 (human breast cancer cells)
Sequence (P10275 whole entry Q868H): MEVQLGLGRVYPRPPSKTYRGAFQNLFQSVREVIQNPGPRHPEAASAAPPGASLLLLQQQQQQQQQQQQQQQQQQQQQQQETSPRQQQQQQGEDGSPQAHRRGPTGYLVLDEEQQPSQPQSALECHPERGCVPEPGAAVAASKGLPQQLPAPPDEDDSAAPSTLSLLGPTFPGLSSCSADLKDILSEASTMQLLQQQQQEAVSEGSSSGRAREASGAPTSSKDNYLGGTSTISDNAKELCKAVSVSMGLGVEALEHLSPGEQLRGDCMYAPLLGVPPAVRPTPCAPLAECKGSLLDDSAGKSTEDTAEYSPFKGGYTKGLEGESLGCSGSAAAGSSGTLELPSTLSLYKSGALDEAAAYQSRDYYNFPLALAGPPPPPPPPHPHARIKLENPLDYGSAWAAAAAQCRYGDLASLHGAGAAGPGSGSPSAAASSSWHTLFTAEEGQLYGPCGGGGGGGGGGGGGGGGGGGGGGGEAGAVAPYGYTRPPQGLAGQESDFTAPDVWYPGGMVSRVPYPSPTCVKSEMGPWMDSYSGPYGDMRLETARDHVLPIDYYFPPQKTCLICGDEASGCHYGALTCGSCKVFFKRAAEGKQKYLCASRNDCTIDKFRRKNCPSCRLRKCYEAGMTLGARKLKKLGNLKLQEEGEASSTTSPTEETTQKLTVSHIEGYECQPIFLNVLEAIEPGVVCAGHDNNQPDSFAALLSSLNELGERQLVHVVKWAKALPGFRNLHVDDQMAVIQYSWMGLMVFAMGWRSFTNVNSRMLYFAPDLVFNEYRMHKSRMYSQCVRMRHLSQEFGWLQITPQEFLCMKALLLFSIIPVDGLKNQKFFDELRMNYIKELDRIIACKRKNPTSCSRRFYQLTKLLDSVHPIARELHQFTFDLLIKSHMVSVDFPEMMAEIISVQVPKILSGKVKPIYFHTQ
Experiment: cell-based
Details: total exposure score / IC20 (MDA-kb2), recalculated using experimental data
I'd be grateful if you could share measured ERR (environmental relevance ratio) for these entries.
Lab note: jot the number down without any unit.

Jot down ERR (environmental relevance ratio) (androgen receptor (AR) (Homo sapiens, UniProt P10275, Q868H)) of CC12CC1(C)C(=O)N(c1cc(Cl)cc(Cl)c1)C2=O (stereo not drawn) [Procymidone, reference compound] . 202.5

Jot down ERR (environmental relevance ratio) (androgen receptor (AR) (Homo sapiens, UniProt P10275, Q868H)) of CNC(=O)Oc1cc(C)c(SC)c(C)c1 . 2.5

Jot down ERR (environmental relevance ratio) (androgen receptor (AR) (Homo sapiens, UniProt P10275, Q868H)) of CC(C)OC(=O)C(O)(c1ccc(Br)cc1)c1ccc(Br)cc1 [Bromopropylate] . 24.1

----------
Molecular target: androgen receptor (AR) (Homo sapiens, UniProt P10275, Q868H)
Construct: MDA-kb2 cells are human breast cancer cells stably transfected with a firefly luciferase reporter gene; endogenous in cells; host or cells: MDA-kb2 (human breast cancer cells)
Type: cell-based
Settings: androgenic in the absence of DHT; Neg = no response was observed
parameter: Androgen EC20 (μM) MDA-kb2

COC(=O)N(C(=O)N1CO[C@@]2(C(=O)OC)Cc3cc(Cl)ccc3C2=N1)c1ccc(OC(F)(F)F)cc1 | Neg
CC12CC1(C)C(=O)N(c1cc(Cl)cc(Cl)c1)C2=O (stereo not drawn) [Procymidone, reference compound] | Neg
CCOc1ccc2c(c1)C(C)=CC(C)(C)N2 | Neg

----------
Tested on: MDA-kb2 cells
Conditions: EC20 = concentration that produces a 20% effect
parameter: Cytotoxic EC20 (μM) MDA-kb2

Give the reported value of Cytotoxic EC20 (μM) MDA-kb2 for this record: COc1ccc(C(=CC(=O)N2CCOCC2)c2ccc(Cl)cc2)cc1OC > 25 µM

Give the reported value of Cytotoxic EC20 (μM) MDA-kb2 for this record: CC(C)OC(=O)Nc1cccc(Cl)c1 > 50 µM

Give the reported value of Cytotoxic EC20 (μM) MDA-kb2 for this record: COP(=S)(OC)Oc1ccc([N+](=O)[O-])c(C)c1 > 50 µM

These measurements were taken from paper PMC3114813.
